# Tested on: conscious rats
# experiment: Determination of CNS toxicity: convulsions in conscious rats under intravenous infusion
# details: Table 5, comparative example compounds, total amount of drug infused when convulsions are first observed
Counter-ions that a name gives are not always drawn.

compound	reading unit	cum conv dose
Brc1ccc(CCO[C@H]2CCCCC2N2CCOCC2)cc1 (some centres unmarked)	µmol/kg	91
Cl.Clc1cccc(Cl)c1COC1CCCC[C@H]1N1CCOCC1 (some centres unmarked)	µmol/kg	97
Cl.OC1CCN([C@@H]2CCCC[C@@H]2OCCc2cccc3ccccc23)C1 (some centres unmarked)	µmol/kg	70
COc1ccc(CCOC2CCCC[C@H]2N2CCN(C(=O)Cc3ccc(OC)c(OC)c3)CC2)cc1OC.Cl.Cl (some centres unmarked)	µmol/kg	133
CC(=O)OC1CCN([C@@H]2CCCCC2OCCc2cccc3ccccc23)C1.Cl (some centres unmarked)	µmol/kg	65
c1ccc2cc(CCO[C@H]3CCCCC3N3CCOCC3)ccc2c1 (some centres unmarked) [Comparative Example Compound 30, monohydrochloride]	µmol/kg	85
COc1ccc(CCO[C@H]2CCCCC2N2CCCC2)cc1OC (some centres unmarked) [Comparative Example Compound 17, monohydrochloride]	µmol/kg	118
COc1ccc(CCOC2CCCC[C@H]2N2CCOCC2)cc1OC (some centres unmarked) [Comparative Example Compound 9, hydrochloride]	µmol/kg	113
c1ccc2c(CCO[C@H]3CCCCC3N3CCOCC3)cccc2c1 (some centres unmarked)	µmol/kg	93
Cl.O=C1CCN(C2CCCC[C@@H]2OCCc2c(Cl)cccc2Cl)C1 (some centres unmarked)	µmol/kg	190
Brc1ccc(OCCO[C@H]2CCCCC2N2CCOCC2)cc1 (some centres unmarked)	µmol/kg	83
COc1ccc(CCO[C@H]2CCCCC2N2CCC3(C2)OCCO3)cc1OC (some centres unmarked) [Comparative Example Compound 10, monohydrochloride]	µmol/kg	91.33
c1cc(CCO[C@H]2CCCCC2N2CCOCC2)c2ccsc2c1 (some centres unmarked)	µmol/kg	54
c1ccc2c(CCO[C@H]3CCCCC3N3CCOCC3)csc2c1 (some centres unmarked)	µmol/kg	65
Cl.OC1CCN(C2CCCC[C@@H]2OCCc2ccccc2Br)C1 (some centres unmarked)	µmol/kg	67
Cl.OC1CCN(C2CCCC[C@@H]2OCCc2c(Cl)cccc2Cl)C1 (some centres unmarked)	µmol/kg	65
Cl.Clc1cccc(Cl)c1CCO[C@@H]1CCCC[C@H]1N1CCSC1	µmol/kg	44.4

###

# Tested on: conscious rats
# experiment: Determination of CNS toxicity: convulsions in conscious rats under intravenous infusion
# details: Table 5, comparative example compounds, minimum iv infusion rate at which partial or complete convulsions are observed
Structures can show the parent of a compound that is named as a salt.

molecule	convulsion dose / µmol/kg/min
Cl.FC(F)(F)c1ccccc1CCO[C@H]1CCCC[C@H]1N1CCOCC1 (racemic) [Comparative Example Compound 42]	16
Cl.Clc1cccc(Cl)c1CCOC1CCCC[C@H]1N1CCSC1 (stereo partly drawn) [Comparative Example Compound 48]	43
c1ccc2c(CCO[C@H]3CCCCC3N3CCOCC3)cccc2c1 (stereo partly drawn) [Comparative Example Compound 31]	16
Cl.OC1CCN([C@@H]2CCCC[C@@H]2OCCc2cccc3ccccc23)C1 (stereo partly drawn) [Comparative Example Compound 25]	16
Brc1ccccc1CCO[C@H]1CCCCC1N1CCOCC1 (stereo partly drawn) [Comparative Example Compound 39]	16
COc1ccc(CCOC2CCCC[C@H]2N2CCN(C(=O)Cc3ccc(OC)c(OC)c3)CC2)cc1OC.Cl.Cl (stereo partly drawn) [Comparative Example Compound 22]	21.33
Cl.O=C1CCN(C2CCCC[C@@H]2OCCc2c(Cl)cccc2Cl)C1 (stereo partly drawn) [Comparative Example Compound 41]	32
c1ccc2cc(OCCO[C@H]3CCCCC3N3CCOCC3)ccc2c1 (stereo partly drawn) [Comparative Example Compound 33]	8
Brc1cccc(CCO[C@H]2CCCCC2N2CCOCC2)c1 (stereo partly drawn) [Comparative Example Compound 38]	16
COc1ccc(CCO[C@H]2CCCCC2N2CCCC2)cc1OC (stereo partly drawn) [Comparative Example Compound 17, monohydrochloride]	21.33
c1cc(CCO[C@H]2CCCCC2N2CCOCC2)c2ccsc2c1 (stereo partly drawn) [Comparative Example Compound 37]	8
Cl.O[C@@H]1CCN(C2CCCC[C@@H]2OCCc2ccccc2C(F)(F)F)C1 (stereo partly drawn) [Comparative Example Compound 27]	16
Cl.OC1CCN(C2CCCC[C@@H]2OCCc2ccccc2Br)C1 (stereo partly drawn) [Comparative Example Compound 24]	13
COc1ccc(CCOC2CCCC[C@H]2N2CCC(=O)C2)cc1OC.Cl (stereo partly drawn) [Comparative Example Compound 18]	32
COc1ccc(CCO[C@H]2CCCCC2N2CCOCC2)cc1OC (stereo partly drawn) [Comparative Example Compound 35]	16

###

# Test system: conscious rats
# experiment: Determination of CNS toxicity: convulsions in conscious rats under intravenous infusion
# details: Table 5, comparative example compounds, minimum iv infusion rate at which partial or complete convulsions are observed
Counter-ions that a name gives are not always drawn.
Listed next: entries and their corresponding convulsion dose.
quantity measured: convulsion dose

> print(dat)
                                   molecule  quantity.measured  endpoint.value
1  Cl.O=C1CCN([C@@H]2CCCCC2OCc2c(Cl)cccc2Cl)C1 (stereo partly shown)    convulsion dose  32 µmol/kg/min
2  Cl.OC1CCN(C2CCCC[C@@H]2OCCn2ccc3ccccc32)C1 (stereo partly shown)    convulsion dose  16 µmol/kg/min
3  c1ccc2c(CCO[C@H]3CCCCC3N3CCOCC3)csc2c1 (stereo partly shown)    convulsion dose   8 µmol/kg/min
4  Brc1ccc(CCO[C@H]2CCCCC2N2CCOCC2)cc1 (stereo partly shown)    convulsion dose  12 µmol/kg/min
5  Clc1ccc(CCO[C@H]2CCCCC2N2CCOCC2)cc1Cl (stereo partly shown)    convulsion dose  16 µmol/kg/min
6  COc1ccc(CCO[C@H]2CCCCC2N2CCC3(C2)OCCO3)cc1OC (stereo partly shown) [Comparative Example Compound 10, monohydrochloride]    convulsion dose  16 µmol/kg/min
7  Cl.OC1CCN(C2CCCC[C@@H]2OCCc2cccc3ccccc23)C1 (stereo partly shown)    convulsion dose   8 µmol/kg/min

###

# Test system: conscious rats
# experiment: Determination of CNS toxicity: convulsions in conscious rats under intravenous infusion
# details: Table 5, comparative example compounds, minimum iv infusion rate at which partial or complete convulsions are observed
Counter-ions that a name gives are not always drawn.
quantity measured: convulsion dose (µmol/kg/min)

> print(dat)
                                   molecule  reading.unit  endpoint.value
1  CC(=O)OC1CCN([C@@H]2CCCCC2OCCc2cccc3ccccc23)C1.Cl (stereo partly shown)   µmol/kg/min               8
2  Cl.OC1CCN(C2CCCC[C@@H]2OCCc2c(Cl)cccc2Cl)C1 (stereo partly shown) [Comparative Example Compound 46]   µmol/kg/min               8
3  Cl.OC1CCN(C2CCCC[C@@H]2OCCc2c(Cl)cccc2Cl)C1 (stereo partly shown) [Comparative Example Compound 23]   µmol/kg/min               8
4  Cl.O=C1CCN(C2CCCC[C@@H]2OCC(c2ccccc2)c2ccccc2)C1 (stereo partly shown)   µmol/kg/min              21
5  Cl.Clc1cccc(Cl)c1CCO[C@@H]1CCCC[C@H]1N1CCSC1   µmol/kg/min               8
6  Cl.Clc1cccc(Cl)c1COC1CCCC[C@H]1N1CCOCC1 (stereo partly shown)   µmol/kg/min              16
7  COc1ccc(CCOC2CCCC[C@H]2N2CCOCC2)cc1OC (stereo partly shown) [Comparative Example Compound 9, hydrochloride]   µmol/kg/min              16
